# Test system: CYP2C19
# measurementProtocol: clinical
# runParameters: human, in vivo, po, 20 mg, tmax (harmonic mean)
# Experimental: This was an open-label clinical trial with fixed sequence design consisting of a total of seven inpatient study days and eight short visits for each participant. The CYP2C19 perpetrator fluconazole (Fluconazol HEXAL® 200 mg, HEXAL) was given for 5 days in oral doses of 400 mg on day 1 and 200 mg on days 2 to 5. […] A diary was used to ensure correct intake of fluconazole and rifampicin at home. […]
assayReadout: Tmax (h)
All answers are understood in h, so give the number only.

Task: Suppose we examine the molecule COc1ccc2[nH]c([S+]([O-])Cc3ncc(C)c(OC)c3C)nc2c1 (stereo not shown) ; what Tmax value has been reported?
Output: 2.97

The measurements presented in this section are drawn from paper PMC9107402.
